- ASSAY_COMMENT: Normal rat biodistribution
- Assay type: in vivo
- CONDITION: 2 min post-injection, i.v., male Wistar rats, Mean±SD n=3
So basically: is % ID Blood under 20 % ID? Then Met. Not under? Then Not met.

Incoming: Consider CC(=NO)C(C)(C)NCCN(CCNC(=O)C1CCC(CNC(=O)c2ccc(S(=O)(=O)NCCCCCN)cc2)CC1)CCNC(C)(C)C(C)=NO (stereo not shown) . Does its % ID Blood lie strictly below 20 % ID?
Outgoing: Met

Incoming: Consider CC(=NO)C(C)(C)NCC(C)(CNC(=O)c1ccc(S(=O)(=O)NCCCCCN)cc1)CNC(C)(C)C(C)=NO (stereo not shown) . Does its % ID Blood lie strictly below 20 % ID?
Outgoing: Met

Incoming: Consider CC(=NO)C(C)(C)NCCN(CCNC(=O)c1ccc(S(=O)(=O)NCCCCCN)cc1)CCNC(C)(C)C(C)=NO . Does its % ID Blood lie strictly below 20 % ID?
Outgoing: Met

Incoming: Consider CC(=NO)C(C)(C)NCC(C)(CNC(=O)CCCCCN)CNC(C)(C)C(C)=NO (stereo not shown) . Does its % ID Blood lie strictly below 20 % ID?
Outgoing: Met

Incoming: Consider CC(CNCc1ccccc1O)(CNCc1ccccc1O)CNC(=O)c1ccc(S(=O)(=O)NCCCCCN)cc1 . Does its % ID Blood lie strictly below 20 % ID?
Outgoing: Not met

Incoming: Consider CC(=NO)C(C)(C)NCC(C)(CNC(=O)C1CCC(CNC(=O)c2ccc(S(=O)(=O)NCCCCCN)cc2)CC1)CNC(C)(C)C(C)=NO (stereo not shown) . Does its % ID Blood lie strictly below 20 % ID?
Outgoing: Not met

Incoming: Consider NCCCCCNS(=O)(=O)c1ccc(C(=O)NCCCNC(=O)c2ccc(NN)nc2)cc1 . Does its % ID Blood lie strictly below 20 % ID?
Outgoing: Met

---

- ASSAY_COMMENT: Normal rat biodistribution
- Format: in vivo
- CONDITION: 240 min post-injection, i.v., male Wistar rats, Mean±SD n=3
Provide the reported % ID Urine of each item.
The reply should be a number in % ID, with the unit left off.

Per the record, CC(=NO)C(C)(C)NCC(C)(CNC(=O)CCCCCN)CNC(C)(C)C(C)=NO (stereo not shown) has % ID Urine of 19.88

Per the record, NCCCCCNS(=O)(=O)c1ccc(C(=O)NCCCNC(=O)c2ccc(NN)nc2)cc1 has % ID Urine of 49.51

Per the record, CC(=NO)C(C)(C)NCCN(CCNC(=O)c1ccc(S(=O)(=O)NCCCCCN)cc1)CCNC(C)(C)C(C)=NO has % ID Urine of 58.9

Per the record, CC(=NO)C(C)(C)NCCN(CCNC(=O)C1CCC(CNC(=O)c2ccc(S(=O)(=O)NCCCCCN)cc2)CC1)CCNC(C)(C)C(C)=NO (stereo not shown) has % ID Urine of 66.08

Per the record, CC(CNCc1ccccc1O)(CNCc1ccccc1O)CNC(=O)c1ccc(S(=O)(=O)NCCCCCN)cc1 has % ID Urine of 16.81

Per the record, CC(=NO)C(C)(C)NCC(C)(CNC(=O)c1ccc(S(=O)(=O)NCCCCCN)cc1)CNC(C)(C)C(C)=NO (stereo not shown) has % ID Urine of 12.31

Per the record, CC(=NO)C(C)(C)NCC(C)(CNC(=O)C1CCC(CNC(=O)c2ccc(S(=O)(=O)NCCCCCN)cc2)CC1)CNC(C)(C)C(C)=NO (stereo not shown) has % ID Urine of 8.55
